Origin of measurements: patent US8962671B2

Quick reference: pIC50 of the listed items.
# Experimental Target: Recombinant human cathepsin A (Homo sapiens, UniProt P10619)
# Construct: Recombinant human cathepsin A (residues 29-480, with a C-terminal 10-His tag); 10-His (C); purchased R&D Systems 1049-SE
# Sequence (P10619 29-326 limits assumed): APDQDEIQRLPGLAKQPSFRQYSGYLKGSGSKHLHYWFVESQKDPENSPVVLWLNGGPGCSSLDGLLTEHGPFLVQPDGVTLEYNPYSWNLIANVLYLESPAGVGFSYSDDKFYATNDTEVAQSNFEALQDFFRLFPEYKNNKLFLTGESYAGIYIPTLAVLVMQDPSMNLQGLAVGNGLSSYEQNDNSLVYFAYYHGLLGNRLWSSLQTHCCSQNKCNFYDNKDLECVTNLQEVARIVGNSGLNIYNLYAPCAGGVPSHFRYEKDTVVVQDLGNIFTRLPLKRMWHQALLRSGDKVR
# Sequence (P10619 327-480 limits assumed): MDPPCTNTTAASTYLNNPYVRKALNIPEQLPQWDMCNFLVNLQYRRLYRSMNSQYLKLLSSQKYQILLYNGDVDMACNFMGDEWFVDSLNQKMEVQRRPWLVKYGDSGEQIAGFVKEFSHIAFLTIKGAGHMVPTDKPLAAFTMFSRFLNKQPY
# Assay Method Text: Cathepsin A inhibitory activity
# Type: biochemical
# Applied Conditions: activated recombinant human cathepsin A 833 ng/ml, Bodipy FL-labeled bradykinin 2 μM, pH 5.5, 15 min room temperature
pIC50: −log10 of the molar value.
Measurement Kind: pIC50

Molecule	Measurement Kind	Experimental Result
CC(C)(C)C(=O)Nc1cc(C(=O)N[C@@H](CC(=O)O)c2ccc(Cl)cc2Cl)nn1-c1ccccc1 [Example 53]	pIC50	7.57
Cc1ccc([C@H](CC(=O)O)NC(=O)c2cc(N(C)C(=O)c3ccccc3)n(-c3ccccc3)n2)cc1 [Example 72]	pIC50	6.99
Cc1ccccc1[C@H](CC(=O)O)NC(=O)c1cc(NC(=O)C(c2ccccc2)c2ccccc2)n(-c2ccccc2)n1 [Example 69]	pIC50	6.90
O=C(O)CC(NC(=O)c1cc2[nH]c3ccccc3n2n1)c1cc(F)ccc1Cl (stereo not shown) [Example 32]	pIC50	6.18

----------
# Experimental Target: Recombinant human cathepsin A (Homo sapiens, UniProt P10619)
# Construct: Recombinant human cathepsin A (residues 29-480, with a C-terminal 10-His tag); 10-His (C)
# Assay Method Text: Cathepsin A inhibitory activity
# Applied Conditions: activated recombinant human cathepsin A 833 ng/ml, Bodipy FL-labeled bradykinin 2 μM, pH 5.5, 15 min room temperature

Compound	IC50
Nc1cc(C(=O)NC(CC(=O)O)c2ccc(-c3ccc(F)cc3)cc2)nn1-c1ccccc1 (stereo not shown)	53.2 nM
Cc1ccccc1[C@H](CC(=O)O)NC(=O)c1cc(N2CCCS2(=O)=O)n(-c2ccccc2F)n1	13.6 nM
Cc1ccccc1[C@H](CC(=O)O)NC(=O)c1cc(NC[C@H](O)C(C)(C)C)n(-c2ccccc2)n1 (single isomer, unassigned)	24.9 nM
O=C(O)CC(NC(=O)c1cc2[nH]c3ccccc3n2n1)c1ccc(F)cc1 (stereo not shown)	2520 nM
CN(C(=O)c1ccccc1)c1cc(C(=O)N[C@@H](CC(=O)O)c2ccccc2Cl)nn1-c1ccccc1	5.7 nM
Nc1cc(C(=O)NC(CC(=O)O)c2ccc(-c3ccc(F)cc3)cc2)nn1-c1ccccc1F (stereo not shown)	18.5 nM
Cc1ccccc1[C@H](CC(=O)O)NC(=O)c1cc(N2CCCC2)n(-c2ccccc2)n1	15.6 nM
Cc1ccccc1[C@H](CC(=O)O)NC(=O)c1cc(N2CCCC2=O)n(-c2ccccc2F)n1	25.8 nM
O=C(O)CC(Cc1ccccc1)NC(=O)c1cc(NC(=O)c2ccccc2)n(-c2ccccc2)n1 (stereo not shown)	370 nM
Cc1ccccc1[C@H](CC(=O)O)NC(=O)c1cc(Nc2ccccn2)n(-c2ccccc2)n1	49.7 nM
Cc1ccccc1[C@H](CC(=O)O)NC(=O)c1cc2[nH]c3ccccc3n2n1	219 nM
Cc1cccc([C@H](CC(=O)O)NC(=O)c2cc3[nH]c4ccccc4n3n2)c1	940 nM
Cc1ccccc1[C@H](CC(=O)O)NC(=O)c1cc(NS(C)(=O)=O)n(-c2ccccc2)n1	25.2 nM
O=C(O)C[C@H](NC(=O)c1cc(NC(=O)c2ccccc2)n(-c2ccccc2)n1)c1ccc(F)cc1	34.1 nM
Nc1cc(C(=O)NC(CC(=O)O)c2cc(Cl)ccc2Cl)nn1-c1ccccc1F (stereo not shown)	200 nM
Cc1ccccc1C(CC(=O)O)NC(=O)c1cc2[nH]c3ccccc3n2n1 (stereo not shown)	900 nM
